In what follows, each item is paired with its IC50 for FAK kinase (catalytic construct FAK(410-689)) (Homo sapiens (Human)).
One number for each entry, in pM.

Answered examples (4):
compound | IC50 (pM)
CC(=O)Nc1cccc(Nc2ncc(C(F)(F)F)c(NCc3nccnc3N(C)S(C)(=O)=O)n2)c1 | 1440
CN(c1ncccc1CNc1nc(Nc2ccc(C(=O)N3CC[C@H](F)C3)cc2)ncc1C(F)(F)F)S(C)(=O)=O (stereo in doubt) | 600
CN(c1cccc(CNc2nc(Nc3ccc(C(N)=O)c(O)c3)ncc2C(F)(F)F)c1)S(C)(=O)=O | 3130
CN(c1ncccc1CNc1nc(Nc2ccc(C(=O)NCC3(O)CCC3)cc2)ncc1C(F)(F)F)S(C)(=O)=O | 600

What IC50 value was documented for this compound, CC(C)[C@@H](CO)NC(=O)c1cccc(Nc2ncc(C(F)(F)F)c(NCc3cccnc3N(C)S(C)(=O)=O)n2)c1 ?
1090

###

tested_target: FAK kinase (catalytic construct FAK(410-689)) (Homo sapiens (Human))
Criterion: IC50 strictly under 1 nM. Met: True. Not met: False.

Example entries begin here.
molecule | classification
CN(c1ncccc1CNc1nc(Nc2ccc(C#N)nc2)ncc1C(F)(F)F)S(C)(=O)=O | False
CN(c1ccnc(CNc2nc(Nc3ccc(C(N)=O)cc3)ncc2C(F)(F)F)c1)S(C)(=O)=O | False
CC(C)NC(=O)c1cccc(Nc2ncc(C(F)(F)F)c(NCc3cccnc3N(C)S(C)(=O)=O)n2)c1 | False

State whether 1 nM exceeds IC50 recorded for CC(=O)N1CC[C@@H](Nc2ncc(C(F)(F)F)c(NCc3cccnc3N(C)S(C)(=O)=O)n2)C1 .
False

###

tested_target: FAK kinase (catalytic construct FAK(410-689)) (Homo sapiens (Human))
Provide the recorded log10 of IC50 for the entries that follow.
Remember, log10 of IC50, in pM.

molecule | endpoint_value
CN(c1ncccc1CNc1nc(Nc2ccc(C(=O)N3CCCC3)cc2)ncc1C(F)(F)F)S(C)(=O)=O [Compound 237] | 3.31

Count: 4. Required value per item: log10 of IC50.
1. Cc1cc(N(C)S(C)(=O)=O)c(CNc2nc(Nc3ccc(C(N)=O)cc3)ncc2C(F)(F)F)cn1 [Compound 85]
2. COc1cc(C(N)=O)ccc1Nc1ncc(C(F)(F)F)c(NCc2ccc(C)nc2N(C)S(C)(=O)=O)n1 [Compound 49]
3. CN(c1ncccc1CNc1nc(Nc2ccc(CNC(N)=O)cc2)ncc1C(F)(F)F)S(C)(=O)=O [Compound 216]
4. CN(c1ncccc1CNc1nc(Nc2ccc(C(=O)NC3CCC3)cc2)ncc1C(F)(F)F)S(C)(=O)=O [Compound 240]

1. 2.92
2. 2.77
3. 2.78
4. 2.84

###

Where a name gives a salt, the structure may show the parent alone.
In what follows, each item is paired with its IC50 for FAK kinase (catalytic construct FAK(410-689)) (Homo sapiens (Human), UniProt Q05397).

Answered examples (5):
compound | tested_target | endpoint_value
CN(c1ncccc1CNc1nc(Nc2ccc(C(=O)N3CC[C@@H](O)C3)cc2)ncc1C(F)(F)F)S(C)(=O)=O | FAK kinase (catalytic construct FAK(410-689)) (Homo sapiens (Human), UniProt Q05397) | 1.91 nM
CN(c1ncccc1CNc1nc(Nc2cccc(C(=O)NCc3ccccn3)c2)ncc1C(F)(F)F)S(C)(=O)=O | FAK kinase (catalytic construct FAK(410-689)) (Homo sapiens (Human), UniProt Q05397) | 1.91 nM
CN(c1cccnc1CNc1nc(Nc2cccc(C(N)=O)c2)ncc1C(F)(F)F)S(C)(=O)=O | FAK kinase (catalytic construct FAK(410-689)) (Homo sapiens (Human), UniProt Q05397) | 1.33 nM
CN(c1ncccc1CNc1nc(Nc2ccc(C(N)=O)c(F)c2)ncc1C(F)(F)F)S(C)(=O)=O [Example 13, formic acid salt] | FAK kinase (catalytic construct FAK(410-689)) (Homo sapiens (Human), UniProt Q05397) | < 0.595 nM
Cc1ccnc(N(C)S(C)(=O)=O)c1CNc1nc(Nc2ccc(C(N)=O)cc2)ncc1C(F)(F)F | FAK kinase (catalytic construct FAK(410-689)) (Homo sapiens (Human), UniProt Q05397) | 0.6 nM

Count: 6. Required value per item: IC50.
1. CN(c1ncccc1CNc1nc(Nc2cccc(C(=O)N3CCCC3CO)c2)ncc1C(F)(F)F)S(C)(=O)=O (centres unmarked)
2. CN(c1cccnc1CNc1nc(Nc2ccc(F)c(C(N)=O)c2)ncc1C(F)(F)F)S(C)(=O)=O
3. COCCCN(C)C(=O)c1ccc(Nc2ncc(C(F)(F)F)c(NCc3cccnc3N(C)S(C)(=O)=O)n2)cc1
4. C[C@@H](N)c1ccc(Nc2ncc(C(F)(F)F)c(NCc3cccc(N(C)S(C)(=O)=O)c3)n2)cc1
5. CN(c1ncccc1CNc1nc(Nc2ccc(CNS(=O)(=O)C(F)(F)F)cc2)ncc1C(F)(F)F)S(C)(=O)=O
6. CC(NC(=O)c1cccc(Nc2ncc(C(F)(F)F)c(NCc3cccnc3N(C)S(C)(=O)=O)n2)c1)C1CC1 (centres unmarked)

["4.74 nM", "4.55 nM", "2.36 nM", "< 0.595 nM", "1 nM", "5.24 nM"]

###

In what follows, each item is paired with its IC50 for FAK kinase (catalytic construct FAK(410-689)) (Homo sapiens (Human)).

compound | endpoint_value
CC(N)c1ccc(Nc2ncc(C(F)(F)F)c(NCc3ccccc3N(C)S(C)(=O)=O)n2)cc1 (stereo in doubt) [Compound 362] | < 0.595 nM
CN(c1cccnc1CNc1nc(Nc2ccc(C(N)=O)c(Cl)c2)ncc1C(F)(F)F)S(C)(=O)=O [Compound 359] | < 0.595 nM

Now examine the next entry.
What IC50 value was documented for this compound, CN(c1nccnc1CNc1nc(Nc2ccc(C(N)=O)c(Cl)c2)ncc1C(F)(F)F)S(C)(=O)=O [Compound 360] ?
< 0.595 nM

###

In what follows, each item is paired with its pIC50 for FAK kinase (catalytic construct FAK(410-689)) (Homo sapiens (Human), UniProt Q05397).
Numbers only, as −log10 of the molar value.

compound | endpoint_value
CCOC(=O)Cc1ccc(Nc2ncc(C(F)(F)F)c(NCc3cccnc3N(C)S(C)(=O)=O)n2)cc1 [Compound 98] | 9.23
CC(=O)NCC(=O)Nc1cccc(Nc2ncc(C(F)(F)F)c(NCc3ncccc3N(C)S(C)(=O)=O)n2)c1 [Compound 398] | 8.66
COc1cc(Nc2ncc(C(F)(F)F)c(NCc3cccnc3N(C)S(C)(=O)=O)n2)ccn1 [Compound 93] | 9.22
CN(c1ncccc1CNc1nc(Nc2cccc(C(=O)N3CC(O)C3)c2)ncc1C(F)(F)F)S(C)(=O)=O [Compound 90] | 9.14

Now examine the next entry.
What pIC50 value was documented for this compound, Cc1cccc(CNc2nc(Nc3ccc(C(N)=O)cc3)ncc2C(F)(F)F)c1N(C)S(C)(=O)=O [Compound 108] ?
9.22

###

tested_target: FAK kinase (catalytic construct FAK(410-689)) (Homo sapiens (Human), UniProt Q05397)
Sequence (Q05397 410-689): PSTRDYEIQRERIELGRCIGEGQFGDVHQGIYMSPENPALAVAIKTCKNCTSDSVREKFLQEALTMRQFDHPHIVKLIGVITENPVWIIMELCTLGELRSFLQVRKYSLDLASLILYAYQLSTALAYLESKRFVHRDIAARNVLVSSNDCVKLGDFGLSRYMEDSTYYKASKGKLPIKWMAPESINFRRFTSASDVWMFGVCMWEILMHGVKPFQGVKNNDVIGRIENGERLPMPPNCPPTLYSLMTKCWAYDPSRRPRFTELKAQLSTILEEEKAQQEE
Criterion: IC50 strictly under 3 nM. Met: Yes. Not met: No.

compound | classification
CS(=O)(=O)c1cccc(CNc2nc(Nc3ccc(S(N)(=O)=O)cc3)ncc2Br)c1 [Compound 35] | No
COc1ccc(C(N)=O)cc1Nc1ncc(C(F)(F)F)c(NCc2ncccc2N(C)S(C)(=O)=O)n1 [Compound 306] | Yes
CN(C)C(=O)c1ccc(Nc2ncc(C(F)(F)F)c(NCc3ccccc3N(C)S(C)(=O)=O)n2)cc1 [Compound 224] | Yes

State whether 3 nM exceeds IC50 recorded for Cc1cc(C(N)=O)ccc1Nc1ncc(C(F)(F)F)c(NCc2cccnc2N(C)S(C)(=O)=O)n1 [Compound 341] .
Yes

State whether 3 nM exceeds IC50 recorded for CN(c1ncccc1CNc1nc(Nc2cccc(C(=O)NC3CCNCC3)c2)ncc1C(F)(F)F)S(C)(=O)=O [Compound 361] .
No

State whether 3 nM exceeds IC50 recorded for CN(c1ncccc1CNc1nc(Nc2ccc(C(=O)NC3CCCOC3)cc2)ncc1C(F)(F)F)S(C)(=O)=O (stereo not shown) [Compound 263] .
Yes

###

tested_target: FAK kinase (catalytic construct FAK(410-689)) (Homo sapiens (Human), UniProt Q05397)
readout_label: IC50 (nM)
Numbers only, in nM.

compound | tested_target | IC50, nM
CN(c1ncccc1CNc1nc(Nc2ccc(C#N)c(O)c2)ncc1C(F)(F)F)S(C)(=O)=O [Compound 390] | FAK kinase (catalytic construct FAK(410-689)) (Homo sapiens (Human), UniProt Q05397) | 0.746
Cc1cc(Nc2ncc(C(F)(F)F)c(NCc3cccnc3N(C)S(C)(=O)=O)n2)ccn1 [Compound 221] | FAK kinase (catalytic construct FAK(410-689)) (Homo sapiens (Human), UniProt Q05397) | 188
CN(c1ncccc1CNc1nc(Nc2ccc(C(=O)NCCO)cc2)ncc1C(F)(F)F)S(C)(=O)=O [Compound 244] | FAK kinase (catalytic construct FAK(410-689)) (Homo sapiens (Human), UniProt Q05397) | 1.11
CN(C)C(=O)c1ccc(Nc2ncc(C(F)(F)F)c(NCc3cccnc3N(C)S(C)(=O)=O)n2)cc1 [Compound 230] | FAK kinase (catalytic construct FAK(410-689)) (Homo sapiens (Human), UniProt Q05397) | 2.38
CN(c1ncccc1CNc1nc(Nc2ccc(C(=O)NCc3ccccn3)cc2)ncc1C(F)(F)F)S(C)(=O)=O [Compound 248] | FAK kinase (catalytic construct FAK(410-689)) (Homo sapiens (Human), UniProt Q05397) | 9.35
CCNC(=O)c1ccc(Nc2ncc(C(F)(F)F)c(NCc3cccc(S(C)(=O)=O)c3)n2)cc1 [Compound 77] | FAK kinase (catalytic construct FAK(410-689)) (Homo sapiens (Human), UniProt Q05397) | 0.6
Cc1cc(C(N)=O)ccc1Nc1ncc(C(F)(F)F)c(NCc2nccnc2N(C)S(C)(=O)=O)n1 [Compound 344] | FAK kinase (catalytic construct FAK(410-689)) (Homo sapiens (Human), UniProt Q05397) | 0.9
Cc1cccc(N(C)S(C)(=O)=O)c1CNc1nc(Nc2ccccc2)ncc1C(F)(F)F [Compound 67] | FAK kinase (catalytic construct FAK(410-689)) (Homo sapiens (Human), UniProt Q05397) | 0.6
COc1cc(C(N)=O)ccc1Nc1ncc(C(F)(F)F)c(NCc2cccnc2N(C)S(C)(=O)=O)n1 [Compound 48] | FAK kinase (catalytic construct FAK(410-689)) (Homo sapiens (Human), UniProt Q05397) | 0.59
CN(c1cccnc1CNc1nc(Nc2ccc(C(N)=O)c(F)c2)ncc1C(F)(F)F)S(C)(=O)=O [Compound 332] | FAK kinase (catalytic construct FAK(410-689)) (Homo sapiens (Human), UniProt Q05397) | 0.863

Count: 5. Required value per item: IC50.
1. CN(c1ncccc1CNc1nc(Nc2cccc(C(=O)N3CC[C@H](O)C3)c2)ncc1C(F)(F)F)S(C)(=O)=O [Compound 157]
2. CN(c1ncccc1CNc1nc(Nc2ccc(C(N)=O)cc2)ncc1C(F)(F)F)S(C)(=O)=O [Compound 20]
3. CN(c1ncccc1CNc1nc(Nc2cccc(C(=O)N3C[C@@H](F)[C@H](F)C3)c2)ncc1C(F)(F)F)S(C)(=O)=O [Compound 153]
4. CN1CCC(NC(=O)c2ccc(Nc3ncc(C(F)(F)F)c(NCc4cccnc4N(C)S(C)(=O)=O)n3)cc2)CC1 [Compound 250]
5. Cc1ccc(CNc2nc(Nc3ccccc3)ncc2C(F)(F)F)c(N(C)S(C)(=O)=O)c1 [Compound 65]

1. 4.24
2. 0.6
3. 3.35
4. 0.69
5. 0.6

Count: 2. Required value per item: IC50.
1. Cc1cnccc1Nc1ncc(C(F)(F)F)c(NCc2cccnc2N(C)S(C)(=O)=O)n1 [Compound 94]
2. CNC(=O)c1ccc(Nc2ncc(C(F)(F)F)c(NCc3cccc(S(C)(=O)=O)c3)n2)cc1 [Compound 52]

1: 8.01; 2: 1.95
